So I've got a bunch of compounds here, and I need their TGI values.
- System: SR leukemia
- experiment: NCI tumour cell line growth inhibition, 48 h

Cc1ccc([N+](=O)[O-])cc1S(=O)(=O)Nc1ccc(C2=NN(c3ccc([N+](=O)[O-])cc3[N+](=O)[O-])C(c3ccccc3O)C2)cc1 (stereo not drawn) ... > 100 µM
CCOC(OCC)C(CCc1ccccc1)c1c(N)nc(N)[nH]c1=O (stereo not drawn) ... > 100 µM
CC(=O)OCCC/C(=C\c1ccc2ccccc2c1)[N+](=O)[O-] ... > 100 µM
O=C1C=C(N2CC2)c2ccccc2C1=O ... 4.78 µM
CSc1nc2c(nc(N)n2C2OCC(O)C(O)C2O)c(=O)[nH]1 (stereo not drawn) ... > 100 µM

Could I get TGI for every one of these entries?
1. CC1(C)Oc2ccc(Cl)cc2C12CC2
2. CCOC(=O)CNC(SC)=C(C#N)C#N
3. Cc1ccc(O)c(Cc2nc3ccccc3nc2-c2cccc(Br)c2)c1

1. 36.4 µM
2. > 100 µM
3. > 100 µM

---

- Tested on: IGROV1 ovarian
- experiment: NCI tumour cell line growth inhibition, 48 h
readout.kind: TGI

Here are 3 molecules together with their reported answers.
CC12C=CC(C)(O1)C1C2c2ccccc2S1(=O)=O (centres undefined) ... 95.3 µM
COc1cc(NCC(C#N)C#N)ccc1N=Nc1ccc([N+](=O)[O-])cc1 ... > 100 µM
COc1ccc(N2CCN(CC(=O)N3CCN(c4nnc(-c5ccccc5)c(-c5ccccc5)n4)CC3)CC2)cc1 ... > 100 µM

Look up TGI for this molecule: O=C(NCCO)c1c(O)c2ccccc2[nH]c1=O
> 100 µM

---

So I've got a bunch of compounds here, and I need their GI50 values.
- System: SF-539 CNS
- experiment: NCI tumour cell line growth inhibition, 48 h

Here are 2 compounds together with their reported answers.
Oc1c(I)cc(I)cc1CNCCCN(Cc1ccccn1)Cc1ccccn1 ... 863 nM
COc1ccc(N2CCN(CC(=O)N3CCN(c4nnc(-c5ccccc5)c(-c5ccccc5)n4)CC3)CC2)cc1 ... 7710 nM

Would you kindly look at the next entry?
Record lookup: for SF-539 CNS, what GI50 belongs to COc1ccc2nc(-c3ccccc3)cc(Nc3ccc(/C(C)=N/O)cc3)c2c1 ?
350 nM

---

So I've got a bunch of compounds here, and I need their TGI values.
- Tested on: NCI/ADR-RES ovarian
- experiment: NCI tumour cell line growth inhibition, 48 h

Here are 3 compounds together with their reported answers.
CC12C=CC(C)(O1)C1C2c2ccccc2S1(=O)=O (centres undefined) ... > 100 µM
O=C1C[C@@H](c2ccccc2)NCCCCN(O)CCCN1 ... > 100 µM
COC(=O)C1CC2(c3ccc(C)cc3)C(c3ccc(C)cc3)=C(c3ccc(C)cc3)C1(c1ccc(C)cc1)S2=O (centres undefined) ... > 100 µM

Would you kindly look at the next entry?
Record lookup: for NCI/ADR-RES ovarian, what TGI belongs to C=C1C(=O)[C@]23[C@H](O)[C@H]1CC[C@H]2[C@@]12CO[C@@]3(O)C[C@@H]1C(C)(C)CC[C@@H]2O ?
> 25 µM

---

So I've got a bunch of compounds here, and I need their TGI values.
- Test system: NCI/ADR-RES ovarian
- experiment: NCI tumour cell line growth inhibition, 48 h
Give bare numbers, in µM.

Here are 5 compounds together with their reported answers.
Cc1cc2nc3ccc(N=Nc4ccc(N(C)C)cc4)cc3n(-c3ccccc3)c-2cc1=N ... 3.13
CN(N)C(=O)NCCCl ... 0.31
COc1cc(/C=C/C(=O)c2c(C)n([O-])c3cc(C)c(C)cc3[n+]2=O)cc(OC)c1OC ... 56.6
COc1cc(C(=O)/C=C/c2c(-c3ccc(F)cc3)nc3sccn23)cc(OC)c1OC ... 6.28
C=CCC1NCCC2=C1C(S(=O)(=O)c1ccc(C)cc1)c1ccccc12 (stereo not given) ... 28.5

Would you kindly look at the next entry?
Look up TGI for this compound: CC(=O)NNC(=O)c1nn(-c2ccc(Cl)cc2)cc1OC(C)=O
69.7

// provenance: PubChem BioAssay (NCI)
